Target: T1, rat Y2 receptor (rat, UniProt Q9ERC0)
T1 sequence: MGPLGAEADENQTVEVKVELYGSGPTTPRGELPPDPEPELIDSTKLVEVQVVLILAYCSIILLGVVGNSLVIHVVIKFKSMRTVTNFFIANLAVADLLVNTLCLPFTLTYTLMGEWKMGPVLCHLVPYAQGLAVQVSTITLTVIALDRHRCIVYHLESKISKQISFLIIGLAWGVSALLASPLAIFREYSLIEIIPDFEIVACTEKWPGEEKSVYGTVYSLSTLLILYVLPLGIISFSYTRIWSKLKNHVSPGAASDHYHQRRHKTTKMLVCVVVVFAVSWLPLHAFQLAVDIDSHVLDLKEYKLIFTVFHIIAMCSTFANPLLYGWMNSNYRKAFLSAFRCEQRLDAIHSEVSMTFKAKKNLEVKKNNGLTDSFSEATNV
Test: 125I-PYY displacement, COS-7 membranes
pKi: −log10 of the molar value. Ends that are not written are not given here.
Reported pKi values are given for each entry in this list.

Reference set (4 entries):
{"columns": ["binder", "obs value"],
 "data": [
  ["APLEPMYPGDYATHEQRAQYETQLRRYINTLTRPRY [rat PP]", "< 6.00"],
  ["TPEQMAQYAADLRRYINMLTRPRY [human PP13-36]", "< 6.19"],
  ["APLEPVYPGDNATPEQMAQYAADLRRYINMLTRPRY [human PP]", "< 6.00"],
  ["PLEPVY [human PP31-36]", "< 5.00"]
]}

Q: For the binder DLARYYSALRHYINLITRQRY (ends and bridges not checked) [porcine NPY16-36] , report pKi.
Result: 7.46

Values from patent US20020103123A1
